Measured values drawn from patent US20250163056A1 for this set.

- measured_on: Bovine cardiac myosin (Bos taurus (Bovine))
- Sequence (Q9BE39 whole entry): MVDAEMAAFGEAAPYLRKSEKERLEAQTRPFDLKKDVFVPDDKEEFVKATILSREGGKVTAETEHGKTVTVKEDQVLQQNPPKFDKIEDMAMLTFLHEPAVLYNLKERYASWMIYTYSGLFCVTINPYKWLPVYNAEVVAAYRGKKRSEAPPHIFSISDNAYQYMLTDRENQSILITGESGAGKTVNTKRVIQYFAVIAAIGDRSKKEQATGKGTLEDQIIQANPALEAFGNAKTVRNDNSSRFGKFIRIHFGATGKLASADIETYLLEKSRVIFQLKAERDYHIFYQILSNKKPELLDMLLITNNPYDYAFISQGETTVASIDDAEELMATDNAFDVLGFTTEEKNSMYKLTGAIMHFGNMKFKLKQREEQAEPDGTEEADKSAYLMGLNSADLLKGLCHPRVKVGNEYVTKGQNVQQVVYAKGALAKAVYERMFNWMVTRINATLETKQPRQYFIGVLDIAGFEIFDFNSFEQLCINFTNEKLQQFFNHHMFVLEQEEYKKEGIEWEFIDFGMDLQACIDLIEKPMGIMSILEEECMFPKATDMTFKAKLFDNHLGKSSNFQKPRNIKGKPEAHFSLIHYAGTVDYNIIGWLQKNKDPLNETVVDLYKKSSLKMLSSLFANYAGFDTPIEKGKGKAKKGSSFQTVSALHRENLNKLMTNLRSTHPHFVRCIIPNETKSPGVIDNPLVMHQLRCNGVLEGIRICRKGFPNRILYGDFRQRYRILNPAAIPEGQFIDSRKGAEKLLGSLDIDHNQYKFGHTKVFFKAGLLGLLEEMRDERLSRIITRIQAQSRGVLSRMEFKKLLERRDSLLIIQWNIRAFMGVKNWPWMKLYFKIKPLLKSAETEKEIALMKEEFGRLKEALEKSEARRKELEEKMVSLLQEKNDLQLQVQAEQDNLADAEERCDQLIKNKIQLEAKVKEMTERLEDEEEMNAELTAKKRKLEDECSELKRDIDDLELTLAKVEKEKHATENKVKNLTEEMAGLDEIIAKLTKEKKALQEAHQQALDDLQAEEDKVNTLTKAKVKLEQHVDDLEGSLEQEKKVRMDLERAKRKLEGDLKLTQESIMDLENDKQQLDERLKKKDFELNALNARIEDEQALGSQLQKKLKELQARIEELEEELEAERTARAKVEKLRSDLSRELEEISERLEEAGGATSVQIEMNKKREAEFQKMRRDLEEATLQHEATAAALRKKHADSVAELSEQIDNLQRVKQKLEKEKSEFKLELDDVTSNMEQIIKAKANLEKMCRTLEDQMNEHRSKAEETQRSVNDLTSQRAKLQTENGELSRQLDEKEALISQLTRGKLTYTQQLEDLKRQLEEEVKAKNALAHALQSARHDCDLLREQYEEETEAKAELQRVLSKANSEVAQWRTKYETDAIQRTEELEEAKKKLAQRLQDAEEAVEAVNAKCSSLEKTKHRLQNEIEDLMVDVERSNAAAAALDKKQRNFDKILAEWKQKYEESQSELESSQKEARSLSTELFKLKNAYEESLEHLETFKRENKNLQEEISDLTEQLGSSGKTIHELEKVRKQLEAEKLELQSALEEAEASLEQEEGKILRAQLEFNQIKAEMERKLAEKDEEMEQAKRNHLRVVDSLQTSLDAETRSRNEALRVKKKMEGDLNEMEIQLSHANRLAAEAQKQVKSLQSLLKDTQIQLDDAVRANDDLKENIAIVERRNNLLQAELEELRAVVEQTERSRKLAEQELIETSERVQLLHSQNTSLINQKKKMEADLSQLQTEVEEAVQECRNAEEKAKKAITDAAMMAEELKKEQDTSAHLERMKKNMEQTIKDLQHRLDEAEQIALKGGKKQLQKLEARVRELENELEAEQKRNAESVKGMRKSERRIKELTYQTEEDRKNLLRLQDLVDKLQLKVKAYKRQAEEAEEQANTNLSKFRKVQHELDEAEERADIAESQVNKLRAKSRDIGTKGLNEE
- Sequence (P85100 whole entry partner): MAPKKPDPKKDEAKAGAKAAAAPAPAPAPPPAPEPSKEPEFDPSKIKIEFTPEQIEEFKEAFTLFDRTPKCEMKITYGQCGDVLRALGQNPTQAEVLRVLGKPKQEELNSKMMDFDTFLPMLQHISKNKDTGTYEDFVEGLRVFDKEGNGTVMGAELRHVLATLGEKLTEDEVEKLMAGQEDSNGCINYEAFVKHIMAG
- Sequence (Q3SZE5 whole entry partner): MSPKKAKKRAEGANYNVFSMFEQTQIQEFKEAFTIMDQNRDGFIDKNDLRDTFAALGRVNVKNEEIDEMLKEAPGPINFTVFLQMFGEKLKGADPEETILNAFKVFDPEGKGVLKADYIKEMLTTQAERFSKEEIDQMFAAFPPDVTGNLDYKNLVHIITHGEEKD
- run_description: Cardiac muscle myosin II actin-activated ATPase assay (NADH-coupled)
- Type: biochemical
- condition_context: cardiac myosin II Ki over nonmuscle myosin II EC50
Listed molecules paired with reported Ratio CMMII:NMII Ki/EC50
measured_attribute: Ratio CMMII:NMII Ki/EC50

molecule	observed_result
Cc1ccc2c(c1)C(=O)[C@]1(O)CCN(c3ccc4ncsc4c3)C1=N2 [BPN-0027036]	7.3
Cc1cc2cc(N3CC[C@@]4(O)C(=O)c5cc(C)c(C)cc5N=C34)ccc2o1 [BPN-0026852]	9.6
Cc1cc2c(cc1C)C(=O)[C@]1(O)CCN(c3ccc(C#N)c(C)c3)C1=N2 [BPN-0026661]	22.1
O=C1c2c(sc3ccccc23)N=C2N(c3ccccc3)CC[C@@]12O [BPN-0026785]	3.1
